# Lookup of reported sensor-assay potency score (higher = more potent) keyed by entry
- measuredOn: CYP4A22
- protocolNotes: pooled miR-30 sensor sort-seq; sequence = guide strand; further: reference of the scale not given here
- recordedConditions: shRNA
Give a plain numeric answer without units written out.

>>> df
                  seqtext  experimentalvalue
0  TTGATCTTCTCCAGCTCCCCCT             -0.672
1  TTGGTCTGTGTGCTGATGGGCC             -0.327

Task item: Data request, read-out sensor-assay potency score (higher = more potent), for TGGTCGTGTTGGAACTCCTGGA
Reply: -0.8

Task item: Data request, read-out sensor-assay potency score (higher = more potent), for TTCTGTAGTTGAGCCTTCCTCA
Reply: 0.294

Task item: Data request, read-out sensor-assay potency score (higher = more potent), for TGGCCCTCAAACATGAACGTGT
Reply: -0.767
